These data points were gathered from patent US11103511B2.

target: hTDO (Homo sapiens, UniProt P48775); construct: made in house; assay: Half effective inhibitory concentration IC50 (cell) of TDO, transfected HEK293 cells; format: cell-based; conditions: HEK293 cells transfected with pcDNA3.1(+)-hTDO, 5 h; NI means of no inhibitory activity; read-out: IC50 Cellular TDO
Sequence (P48775 whole entry): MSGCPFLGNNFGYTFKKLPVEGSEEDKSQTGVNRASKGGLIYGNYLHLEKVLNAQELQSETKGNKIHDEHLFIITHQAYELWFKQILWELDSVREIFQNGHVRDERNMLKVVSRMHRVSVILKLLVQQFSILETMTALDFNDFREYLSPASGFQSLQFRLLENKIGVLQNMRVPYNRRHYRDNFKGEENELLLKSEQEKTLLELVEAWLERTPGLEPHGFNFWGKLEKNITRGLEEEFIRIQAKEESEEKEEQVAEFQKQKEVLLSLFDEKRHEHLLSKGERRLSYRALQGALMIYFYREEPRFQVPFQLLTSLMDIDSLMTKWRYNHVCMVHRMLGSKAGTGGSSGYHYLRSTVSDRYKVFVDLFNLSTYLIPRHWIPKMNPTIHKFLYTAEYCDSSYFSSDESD
Please respond with reported IC50 for every item in the list.
Entry rule: numbers only, all in nM.

Prompt line: # input molecule: O=C1c2cc(Cn3cc(-c4ccccc4)nn3)ccc2-n2c1nc1ccc(F)cc1c2=O ; wanted: its IC50
Response line: 1370

Prompt line: Suppose we examine the molecule O=C1c2cc(F)ccc2-n2c1nc1ccc(CN3CCOCC3)cc1c2=O ; what IC50 value has been reported?
Response line: 71

Prompt line: # IC50 lookup, item CN(C)Cc1ccc2nc3n(c(=O)c2c1)-c1ccc(F)cc1C3=O
Response line: 63

---

molecular target: hTDO (Homo sapiens); construct: made in house; test: Half effective inhibitory concentration IC50 (enzyme level) of TDO; type: biochemical; details: pH 7.0, NI means of no inhibitory activity, read-out: IC50 enzymatic TDO
assay.endpoint: pIC50
Please note pIC50 is a logarithmic value: minus log10 of concentration in mol/L. Answer with that number alone.

Prompt line: Entry O=C1c2cc(F)ccc2-n2c1nc1ccc(CN3CCNCC3)cc1c2=O : reported pIC50 = ?
Response line: 6.06

Prompt line: Given the entry O=C1c2cc(Cn3cc(-c4ccccc4)nn3)ccc2-n2c1nc1ccccc1c2=O , report its measured pIC50.
Response line: 4.33

Prompt line: Endpoint output: pIC50 of Cc1ccc2nc3n(c(=O)c2c1)-c1ccc(Cn2cc(-c4ccccc4)nn2)cc1C3=O . Value?
Response line: 4.05

---

Please respond with reported IC50 for every item in the list.
biological target: hTDO (Homo sapiens, UniProt P48775); construct: made in house; test: Half effective inhibitory concentration IC50 (cell) of TDO, transfected HEK293 cells; assay type: cell-based; conditions: HEK293 cells transfected with pcDNA3.1(+)-hTDO, 5 h; NI means of no inhibitory activity; read-out: IC50 Cellular TDO
State just the number; it will be interpreted in nM.

Prompt line: Quick one: IC50 of O=C1c2cc(F)ccc2-n2c1nc1ccc(CN3CCNCC3)cc1c2=O ?
Response line: 92

Prompt line: IC50 for O=C1c2cc(Cn3cc(-c4ccccc4)nn3)ccc2-n2c1nc1ccc(Br)cc1c2=O ?
Response line: 715

Prompt line: Would you mind telling me what IC50 value was observed for O=C1c2cc(Cn3cc(-c4ccccc4)nn3)ccc2-n2c1nc1ccc(Cl)cc1c2=O ?
Response line: 713

Prompt line: Recorded IC50 for O=C1c2cc(Cn3cc(-c4ccccc4)nn3)ccc2-n2c1nc1ccccc1c2=O , please?
Response line: 688
